# assayProtocol: Optical property measurements (absorbance and fluorescence spectra)
# Assay type: physicochemical
# conditionDetails: 100% FBS with 50 mM HEPES, pH 7.4, 37° C.
parameter: Abs (peak absorbance)

>>> print(df.to_string())
                                   molecule              parameter  result
0  N#CC1=c2cc3c4c(c2Oc2c1cc1c5c2CCCN5CCC1)CCC[N+]=4CCC3  Abs (peak absorbance)  697 nm
1      CC/N=c1/cc2oc3cc(NCC)c(C)cc3nc-2cc1C  Abs (peak absorbance)  616 nm
2  CCN(CC)c1ccc2nc3ccc(=[N+](CC)CC)cc-3oc2c1  Abs (peak absorbance)  655 nm
3  COc1cc(/C=C/c2ccc(N)cc2)ccc1/C=C/c1ccc(N)cc1 [BMB, reference compound]  Abs (peak absorbance)  397 nm
4  CC/N=c1/cc2oc3cc(NCC)c(C)cc3nc-2c2ccccc12  Abs (peak absorbance)  625 nm
5  CC/N=c1/cc2oc3c4c5c(cc3nc-2c2ccccc12)CCCN5CCC4  Abs (peak absorbance)  676 nm

---

# assayProtocol: Optical property measurements (absorbance and fluorescence spectra)
# Format: physicochemical
# conditionDetails: 100% FBS with 50 mM HEPES, pH 7.4, 37° C.
parameter: λ (extinction coefficient)

>>> df
                                   molecule             result
0  CC/N=c1/cc2oc3cc(NCC)c(C)cc3nc-2c2ccccc12   69,000 M^−1cm^−1
1      CC/N=c1/cc2oc3cc(NCC)c(C)cc3nc-2cc1C  143,000 M^−1cm^−1
2  CCN(CC)c1ccc2nc3ccc(=[N+](CC)CC)cc-3oc2c1  196,000 M^−1cm^−1
3  N#CC1=c2cc3c4c(c2Oc2c1cc1c5c2CCCN5CCC1)CCC[N+]=4CCC3   68,000 M^−1cm^−1
4  CC/N=c1/cc2oc3c4c5c(cc3nc-2c2ccccc12)CCCN5CCC4   44,000 M^−1cm^−1
5  COc1cc(/C=C/c2ccc(N)cc2)ccc1/C=C/c1ccc(N)cc1 [BMB, reference compound]   52,800 M^−1cm^−1

---

# assayProtocol: Optical property measurements (absorbance and fluorescence spectra)
# Type: physicochemical
# conditionDetails: 100% FBS with 50 mM HEPES, pH 7.4, 37° C.
Values of Em (peak emission) greater than or equal to 600 nm map to YES; values below map to NO.

>>> print(df.to_string())
                                   molecule  categorylabel
0  N#CC1=c2cc3c4c(c2Oc2c1cc1c5c2CCCN5CCC1)CCC[N+]=4CCC3            YES
1  COc1cc(/C=C/c2ccc(N)cc2)ccc1/C=C/c1ccc(N)cc1 [BMB, reference compound]             NO
2  CC/N=c1/cc2oc3cc(NCC)c(C)cc3nc-2c2ccccc12            YES
3      CC/N=c1/cc2oc3cc(NCC)c(C)cc3nc-2cc1C            YES
4  CC/N=c1/cc2oc3c4c5c(cc3nc-2c2ccccc12)CCCN5CCC4            YES
5  CCN(CC)c1ccc2nc3ccc(=[N+](CC)CC)cc-3oc2c1            YES
